measured_on: T1, extracellular domain of activin receptor type IIB (ActRIIBecd), biotinylated (Homo sapiens (Human), UniProt Q13705 27-117, amino-biotinylated with amine-PEG3-Biotin)
T1 construct: immobilised on a streptavidin-coated sensor chip; also called biotinylated ActRIIBecd; extracellular domain of ActRIIB
T1 sequence: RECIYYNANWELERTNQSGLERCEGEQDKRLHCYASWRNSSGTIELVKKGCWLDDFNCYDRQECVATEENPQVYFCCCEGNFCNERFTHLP
method_notes: BIAcore SPR as Example 5 (method not restated); SD ±2.01 nM
observable: pKd
// returns pKd (minus log10 of molar concentration), number only

Fill in: pKd of SEQ ID NO: 194, cysteine pairs C23-C65^a (designed binder, disulfides C23-C65 (intra)) VDFSDVGWNDWIVAPPGYHAFYCHGECPFPLADHLNSTNHAIVQTLVNSVAQAKHKQRKRLKSSCKRHPLY is ___
7.34
